Recorded EC50 by entry
Target: UniProt P21453
Assay: hS1P1R GTPγS Binding Assay (Assay 3a)

CC(CO)Oc1ccc(-c2noc(-c3cn4cc(C(F)(F)F)cc(Cl)c4n3)n2)c(Cl)c1 (stereo not shown): 500 to 1000 nM
OCCOc1cc(Cl)c(-c2noc(-c3cn4cc(C(F)(F)F)cc(Cl)c4n3)n2)cc1F: ≤ 100 nM
O=C(O)CCc1cc(Cl)c(-c2nc(-c3cn4cc(C(F)(F)F)cc(Cl)c4n3)no2)cc1F: 100 to 500 nM
O=C(O)C1CC1c1cc(Cl)c(-c2noc(-c3cn4cc(C(F)(F)F)cc(Br)c4n3)n2)cc1F (stereo not shown): 500 to 1000 nM
C[C@@H](CO)Oc1cc(Cl)c(-c2noc(-c3cn4cc(C(F)(F)F)cc(Cl)c4n3)n2)cc1F: ≤ 100 nM

Measured EC50, "O=C(O)CCc1cc(Cl)c(-c2nnc(-c3cn4cc(C(F)(F)F)cc(Br)c4n3)s2)cc1Cl" : 1000 to 5000 nM

====

Target: S1P1 (Homo sapiens, UniProt P21453)
Test: CNG cAMP Assay (Assay 1)
Type: cell-based
Design: host or cells: HEK293 cells expressing the CNG channel
Conditions: read-out: Assay 1 EC50
PROPERTY NAME: EC50

Below: 10 compounds and their reported EC50.
CC(Cc1ccc(-c2noc(-c3cn4cc(C(F)(F)F)cc(Cl)c4n3)n2)c(F)c1)C(=O)O (stereo not drawn): 100 to 500 nM
CC(CO)Oc1cc(Cl)c(-c2nc(-c3cn4cc(C(F)(F)F)cc(Cl)c4n3)no2)cc1Cl (stereo not drawn): ≤ 100 nM
CS(=O)(=O)CCc1ccc(-c2noc(-c3cn4cc(C(F)(F)F)cc(Cl)c4n3)n2)c(Cl)c1: ≤ 100 nM
NCCOc1ccc(-c2nc(-c3cn4cc(C(F)(F)F)cc(Cl)c4n3)no2)c(Cl)c1: 100 to 500 nM
CC(Cc1ccc(-c2noc(-c3cn4cc(C(F)(F)F)cc(Cl)c4n3)n2)c(Cl)c1)C(=O)O (stereo not drawn): ≤ 100 nM
CS(=O)(=O)Nc1ccc(-c2noc(-c3cn4cc(C(F)(F)F)cc(Cl)c4n3)n2)cc1F: 100 to 500 nM
Cc1cc(-c2noc(-c3cn4cc(C(F)(F)F)cc(Cl)c4n3)n2)cc(C)c1O[C@H](C)CO: ≤ 100 nM
C=CS(=O)(=O)Nc1ccc(-c2noc(-c3cn4cc(C(F)(F)F)cc(Cl)c4n3)n2)c(Cl)c1: 100 to 500 nM
CC(CN)Oc1ccc(-c2noc(-c3cn4cc(C(F)(F)F)cc(Cl)c4n3)n2)c(Cl)c1 (stereo not drawn): 100 to 500 nM
O=C(O)CCc1ccc(-c2noc(-c3cn4cc(C(F)(F)F)cc(Cl)c4n3)n2)c(Cl)c1: ≤ 100 nM

Measured EC50, "O=c1[nH]c(Cc2ccc(-c3noc(-c4cn5cc(C(F)(F)F)cc(Cl)c5n4)n3)c(Cl)c2)no1" : 100 to 500 nM

Measured EC50, "N[C@@H](COc1ccc(-c2noc(-c3cn4cc(C(F)(F)F)cc(Cl)c4n3)n2)c(Cl)c1)C(=O)O" : 100 to 500 nM

====

Target: hS1P1R (hEdg1) (Homo sapiens, UniProt P21453)
Sequence (P21453 whole entry): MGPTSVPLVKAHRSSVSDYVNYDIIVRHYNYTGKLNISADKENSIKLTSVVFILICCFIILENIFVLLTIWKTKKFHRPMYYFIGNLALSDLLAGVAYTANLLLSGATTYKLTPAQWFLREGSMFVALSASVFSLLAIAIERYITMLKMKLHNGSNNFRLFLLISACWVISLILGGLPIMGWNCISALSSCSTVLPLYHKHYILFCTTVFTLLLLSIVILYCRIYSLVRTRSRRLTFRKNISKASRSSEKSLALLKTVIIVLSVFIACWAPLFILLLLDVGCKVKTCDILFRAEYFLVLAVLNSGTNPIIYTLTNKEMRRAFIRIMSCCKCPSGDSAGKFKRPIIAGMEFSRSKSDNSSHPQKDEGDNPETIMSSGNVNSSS
Assay: hS1P1R GTPγS Binding Assay (Assay 3a)
Recorded EC50 by entry

Below: 3 compounds and their reported EC50.
CC(O)COc1cc(Cl)c(-c2noc(-c3cn4cc(C(F)(F)F)cc(Cl)c4n3)n2)cc1Cl (stereo not shown): 100 to 500 nM
CC(C)(O)COc1cc(Cl)c(-c2noc(-c3cn4cc(C(F)(F)F)cc(Br)c4n3)n2)cc1Cl: 100 to 500 nM
O=C(O)CCc1cc(Cl)c(-c2noc(-c3cn4cc(C(F)(F)F)cc(Cl)c4n3)n2)cc1F: ≤ 100 nM

Record "OCCOc1cc(Cl)c(-c2noc(-c3cn4cc(C(F)(F)F)cc(Br)c4n3)n2)cc1Cl" / hS1P1R (hEdg1) (Homo sapiens, UniProt P21453), EC50 recorded as ≤ 100 nM
